# credit: paper PMC3951225

Tested on: SK-BR-3 cells
ASSAY_COMMENT: MTT cytotoxicity dose-response assay, SK-BR-3
Format: cell-based, human
CONDITION_DESCRIPTION: 72 h treatment, a/b/c = one, two, three or more dose-response curves
EXPERIMENTAL_ENDPOINT: IC50

COC(=O)C(N)CSCC1C(=O)OC2C1CCC1(C)C(O)CC=C(C)C21 (centres unmarked) [Compound 21] :: 40 µM

Below: the item to evaluate.
I would be grateful if you could share the reported IC50 for C=C1C(=O)OC2C1CCC1(C)C(O)CCC(=C)C21 (stereo not drawn) [Compound 7, 1-epi-reynosin] .
6.4 µM

====

This section presents molecules with their documented IC50 values.
Test system: JIMT-1 cells
ASSAY_COMMENT: MTT cytotoxicity dose-response assay, JIMT-1
Type: cell-based, human
CONDITION_DESCRIPTION: 72 h treatment, a/b/c = one, two, three or more dose-response curves
Entry rule: numbers only, all in µM.

Any idea what its IC50 is? The molecule is C=C1C(=O)O[C@@H]2/C=C(\C)CC/C=C(\C)CC[C@@H]12 [Compound 1, costunolide]
6.3

Reported IC50, molecule C=C1C(=O)O[C@H]2[C@H]1CCC(C)=C1[C@@H](OC(C)=O)[C@H]3O[C@@]3(C)[C@@H]12 [Compound 12] : ____
10.1

Suppose we examine the molecule C=C1C(=O)O[C@@H]2[C@H]3C(C)=CC(=O)C3=C(C)CC[C@@H]12 [Compound 14, dehydroleucodin] ; what IC50 value has been reported?
8.1

Given C=C(C(=O)OC)C1CCC2(C)C(O)CCC(=C)C2C1O (stereo not drawn) [Compound 16, baynol C] , state its recorded IC50.
23

Report IC50 for C=C1C(=O)OC2C1CCC1(C)C(=O)C=CC(C)(O)C21 (stereo not drawn) [Compound 11, 11,13-didehydrovulgarin] please.
13

Could you share which IC50 value was measured for C=C1CC[C@@H](O)[C@]2(C)CC[C@H]3C(=C)C(=O)O[C@@H]3[C@@H]12 [Compound 6, reynosin] ?
12

Suppose we examine the molecule C=C1CC[C@H](OC(C)=O)[C@]2(C)CC[C@H]3C(=C)C(=O)O[C@@H]3[C@@H]12 (relative stereo) [Compound 8] ; what IC50 value has been reported?
7

I'd like to know its IC50. The molecule in question is C=C1C(=O)O[C@@H]2[C@H]3C(C)=CC[C@@H](O)[C@]3(C)CC[C@@H]12 [Compound 9, santamarin]
7.2

Data request, read-out IC50, for C=C1C(=O)OC2C1CCC1(C)C(O)CCC(=C)C21 (stereo not drawn) [Compound 7, 1-epi-reynosin]
14

====

Test system: SK-BR-3 cells
ASSAY_COMMENT: MTT cytotoxicity dose-response assay, SK-BR-3
Type: cell-based, human
CONDITION_DESCRIPTION: Homo sapiens, SK-BR-3, 72 h, 72 h treatment, a/b/c = one, two, three or more dose-response curves
EXPERIMENTAL_ENDPOINT: log10 IC50 (log10 of the value in µM)
# values: log10(IC50), units µM

C=C1C(=O)O[C@@H]2[C@@H]3[C@@](C)(CC[C@@H]12)[C@@H](OC(C)=O)CC[C@]3(C)O (relative stereo) :: 1.00

Any idea what log10 IC50 was measured for `C=C1C(=O)O[C@@H]2[C@H]3C(C)=CC[C@@H](O)[C@]3(C)CC[C@@H]12` ?
0.49

Value lookup for log10 IC50; key = COC(=O)C(N)CSCC1C(=O)OC2C1CCC1(C)C(O)CC=C(C)C21 (stereo not shown)
1.71

====

IC50 values, listed per item
Tested on: SK-BR-3 cells
ASSAY_COMMENT: MTT cytotoxicity dose-response assay, SK-BR-3
Format: cell-based, human
CONDITION_DESCRIPTION: Homo sapiens, SK-BR-3, 72 h, 72 h treatment, a/b/c = one, two, three or more dose-response curves
Method: The L56Br-C1 cell line was established at the Department of Oncology, Clinical Sciences, Lund University, Sweden. […] The MTT assay was performed as previously described. Briefly, the cells were trypsinized and counted in a hemocytometer. […] Absorbance was monitored at 540 nm in a Labsystems iEMS Reader MF (Labsystems Oy, Helsinki, Finland) using the DeltaSoft II v.4.14 software (Biometallics Inc., Princeton, NJ, USA). […]
Your answer is read as µM, so omit the unit and give the number.

C=C1C(=O)OC2C1CCC1(C)C(=O)C=CC(C)(O)C21 (stereo not shown) [Compound 11, 11,13-didehydrovulgarin] :: 4.2
C=C1CC[C@H](OC(C)=O)[C@]2(C)CC[C@H]3C(=C)C(=O)O[C@@H]3[C@@H]12 (relative stereo) :: 4.7
C=C1C(=O)O[C@@H]2/C=C(\C)CC/C=C(\C)CC[C@@H]12 [Compound 1, costunolide] :: 2

Continue with the next compound.
Name the reported IC50 value associated with the compound C=C1C(=O)O[C@@H]2[C@H]3C(C)=CC(=O)C3=C(C)CC[C@@H]12 [Compound 14, dehydroleucodin]
2.5

====

System: MCF-7 cells
ASSAY_COMMENT: MTT cytotoxicity dose-response assay, MCF-7
Type: cell-based, human
CONDITION_DESCRIPTION: 72 h treatment, a/b/c = one, two, three or more dose-response curves
Procedure: The L56Br-C1 cell line was established at the Department of Oncology, Clinical Sciences, Lund University, Sweden. […] The MTT assay was performed as previously described. Briefly, the cells were trypsinized and counted in a hemocytometer. […] Absorbance was monitored at 540 nm in a Labsystems iEMS Reader MF (Labsystems Oy, Helsinki, Finland) using the DeltaSoft II v.4.14 software (Biometallics Inc., Princeton, NJ, USA). […]
Reported IC50 values for the following compounds.
# output: numeric value plus its unit

C=C1C(=O)O[C@@H]2[C@H]3C(C)=CC(=O)C3=C(C)CC[C@@H]12 [Compound 14, dehydroleucodin] :: 4.3 µM
C=C1C(=O)OC2C1CCC1(C)C(=O)C=CC(C)(O)C21 (stereo not shown) [Compound 11, 11,13-didehydrovulgarin] :: 18 µM
C=C1C(=O)OC2C1CCC1(C)C(O)CCC(=C)C21 (stereo not drawn) [Compound 7, 1-epi-reynosin] :: 30 µM

API: the following record is the query input.
Would you mind telling me what IC50 value was observed for C=C1C(=O)O[C@H]2[C@H]1CCC(C)=C1[C@@H](OC(C)=O)[C@H]3O[C@@]3(C)[C@@H]12 [Compound 12] ?
8.3 µM

====

Test system: L56Br-C1 cells
ASSAY_COMMENT: MTT cytotoxicity dose-response assay, L56Br-C1
Type: cell-based, human
CONDITION_DESCRIPTION: 72 h treatment, a/b/c = one, two, three or more dose-response curves
EXPERIMENTAL_ENDPOINT: IC50 (µM)
Reply with just the number (in µM).

The examples below pair each entry with its known result.
C=C1C(=O)O[C@H]2[C@H]1CCC(C)=C1[C@@H](OC(C)=O)[C@H]3O[C@@]3(C)[C@@H]12 [Compound 12] :: 10.1
C=C1CC[C@H](OC(C)=O)[C@]2(C)CC[C@H]3C(=C)C(=O)O[C@@H]3[C@@H]12 (relative stereo) [Compound 8] :: 12
C=C1C(=O)OC2C1CCC1(C)C(O)CCC(=C)C21 (stereo not drawn) [Compound 7, 1-epi-reynosin] :: 10.1
C=C1C(=O)O[C@@H]2/C=C(\C)CC/C=C(\C)CC[C@@H]12 [Compound 1, costunolide] :: 4.8

Let's switch to this compound now.
Request - read-out IC50 | tested on L56Br-C1 cells | compound C=C1C(=O)O[C@@H]2[C@H]3C(C)=CC(=O)C3=C(C)CC[C@@H]12 [Compound 14, dehydroleucodin]
10

====

Quick reference for IC50 among some compounds
Tested on: MCF-10A cells
ASSAY_COMMENT: MTT cytotoxicity dose-response assay, MCF-10A (non-cancerous)
Format: cell-based, human
CONDITION_DESCRIPTION: normal-like breast epithelial cell line, 72 h treatment, a/b/c = one, two, three or more dose-response curves
A number alone suffices; assume µM.

C=C1C(=O)O[C@@H]2[C@H]3C(C)=CC(=O)C3=C(C)CC[C@@H]12 [Compound 14, dehydroleucodin] :: 23

Next item in the queue.
Request the reported IC50 associated with C=C1C(=O)OC2C1CCC1(C)C(=O)C=CC(C)(O)C21 (centres unmarked) [Compound 11, 11,13-didehydrovulgarin]
21

====

System: HCC1937 cells
ASSAY_COMMENT: MTT cytotoxicity dose-response assay, HCC1937
Type: cell-based, human
CONDITION_DESCRIPTION: Homo sapiens, HCC1937, 72 h, 72 h treatment, a/b/c = one, two, three or more dose-response curves
# key: entry, value: IC50
Express it in µM; write the number only.

Name the recorded IC50 for COC(=O)C(N)CSCC1C(=O)OC2C1CCC1(C)C(O)CC=C(C)C21 (stereo not shown) [Compound 21] .
100

For the compound C=C1C(=O)O[C@@H]2[C@H]3C(C)=CC[C@@H](O)[C@]3(C)CC[C@@H]12 [Compound 9, santamarin] , what IC50 is on record?
8.1

// returns reported IC50 for input C=C1C(=O)OC2C1CCC1(C)C(=O)C=CC(C)(O)C21 (stereo not shown) [Compound 11, 11,13-didehydrovulgarin]
4.8

I have this compound here, C=C1C(=O)O[C@@H]2[C@H]3C(C)=CC(=O)C3=C(C)CC[C@@H]12 [Compound 14, dehydroleucodin] , and I need its recorded IC50.
3

Which IC50 is listed for C=C1CC[C@@H](O)[C@]2(C)CC[C@H]3C(=C)C(=O)O[C@@H]3[C@@H]12 [Compound 6, reynosin] ?
10

Give the measured IC50 of C=C1C(=O)O[C@@H]2[C@@H]3[C@@](C)(CC[C@@H]12)[C@@H](OC(C)=O)CC[C@]3(C)O (relative stereo) [Compound 3] .
23

Which measured IC50 value corresponds to C=C(C(=O)OC)C1CCC2(C)C(O)CCC(=C)C2C1O (stereo not shown) [Compound 16, baynol C] ?
24

If you can, please state the reported IC50 value of C=C1C(=O)O[C@H]2[C@H]1CCC(C)=C1[C@@H](OC(C)=O)[C@H]3O[C@@]3(C)[C@@H]12 [Compound 12] .
6

Bench note: what IC50 did C=C1C(=O)OC2C1CCC1(C)C(O)CCC(=C)C21 (stereo not drawn) [Compound 7, 1-epi-reynosin] show?
12

Can you look up the measured IC50 of C=C1C(=O)O[C@@H]2/C=C(\C)CC/C=C(\C)CC[C@@H]12 [Compound 1, costunolide] for me?
2.2
